Molecular target: Cdk2(S276C) (C177A) (Homo sapiens, UniProt P24941, C177A/S276C)
Construct: poly-histidine; made in house; host or cells: E. coli
Test: Kinetic thiol consumption assay with Cdk2 mutant S276C
Assay type: binding
Conditions: Protein: Cdk2; cysteine position S276C; additional mutation C177A; in h^-1
Method: To wells containing 150 μL thiol (Cdk2 or model thiol) (5 μM) in degassed phosphate buffer (pH 8) was added immobilized TCEP beads (2% v/v). After incubation of the fluorescence plates for 1 hour at room temperature, fluorescence measurements (excitation/emission of 380/470 nm) were taken on a PerkinElmer EnVision multilabel plate reader and processed with EnVision Workstation version 1.12. Fluorescence measurements were normalized against a DMSO/thiol only control and plotted against time. […]
Use met when the recorded Rate constant with Cdk2 S276C is no lower than 0.008; use not met when it is lower.

# example entries with known answers
>>> print(df.to_string())
                                   molecule  qualitativelabel
0  C=CC(=O)N1CC(CCN2CCCC2=O)c2ccccc21 (centres unmarked) [CA-089]               met
1  C=CC(=O)N1CCCC2(CCCc3ccccc32)C1 (centres unmarked) [CA-084]               met
2  C=CC(=O)N(c1cccc2ncccc12)C1CCC1 [CA-032/228]               met
3  C=CC(=O)Nc1cccc(Nc2ncnc3cc(OC)c(OC)cc23)c1 [GC248]           not met
4       C=CC(=O)NCc1ccc(C(=O)OC)cc1 [BN-65]           not met
5  C=CC(=O)NC1CC(NC(=O)C2CCC2)C1 (centres unmarked) [CA-202]           not met
6       O=C(CCl)NCCc1c[nH]c2ccccc12 [EN005]               met
7        C=CC(=O)N1CCC2(CCCCCC2)C1 [CA-093]               met

Input: Form field: Rate constant with Cdk2 S276C at least 0.008? Entry: C=CC(=O)N1CCC2CCC(C1)N2C (centres unmarked) [CA-143]
Output: met

Input: Next up: C=CC(=O)N1CC2CCCCCCC21 (centres unmarked) [CA-098]
Output: met

Input: Next up: C=CC(=O)N1CCc2cc(-c3cccc(F)c3)ccc21 [CA-042]
Output: met

Input: Next up: C=CC(=O)NCc1ccc(F)cc1 [BN-62]
Output: not met

Input: Next up: C=CC(=O)NCCN1CCOCC1 [BN-346]
Output: not met

Input: Next up: C=CC(=O)Nc1ccc2c(c1)OC1(CCCC1)O2 [CA-054]
Output: not met

Input: Next up: C=CC(=O)N1CCN(Cc2noc(C3CC3)n2)CC1 [CA-091]
Output: not met

Input: Next up: C=CC(=O)N(C)C1CC(OCC)C12CCC2 (centres unmarked) [CA-048]
Output: met

Input: Next up: C=CC(=O)Nc1cccc(C(F)(F)F)c1 [BN-80]
Output: met

Input: Next up: C=CC(=O)NC(C)c1ccc2c(c1)OCO2 (centres unmarked) [EL-1051]
Output: not met

Input: Next up: C=CC(=O)Nc1ccc(-c2ncccn2)cc1 [CA-037]
Output: met

Input: Next up: C=CC(=O)NCC1CCCN1S(=O)(=O)c1ccc(C)cc1 (centres unmarked) [CA-118]
Output: not met

Input: Next up: C=CC(=O)NCCCN(C(=O)C1CCC1)C1CC1 [CA-060]
Output: not met

====

Rate constant with Cdk2[C177A, F80C, K278C] (k(Cdk2_mut)) values by entry
target: Cdk2[C177A, F80C, K278C] (Homo sapiens, UniProt P24941, C177A/F80C/K278C); construct: poly-histidine; made in house; host or cells: E. coli; assay: Kinetic thiol consumption assay with mutant Cdk2 as model thiol; type: binding; design: unit not given here; settings: 500 μM ligand, 5 μM thiol, phosphate buffer pH 8
Answer with a bare number; do not write a unit.

Here are 5 compounds together with their reported answers.
>>> df
                            smilesstructure  observedmeasurement
0                C=CC(=O)Nc1nc2c(s1)CCCCCC2               0.9197
1  C=CC(=O)Nc1[nH]nc(C2CC2)c1-c1ccc2c(c1)OCO2                1.933
2               C=CC(=O)NCc1ccc(C(=O)OC)cc1              0.00398
3                   C=CC(=O)Nc1cccc2ncccc12               0.4157
4  C=CC(=O)Nc1ccc(C23CC4CC(CC(O)(C4)C2)C3)cc1              0.01393

Field: next compound
Input: Using the record for C=CC(=O)NCCN1CCOCC1 , report its Rate constant with Cdk2[C177A, F80C, K278C] (k(Cdk2_mut)).
Output: 0.00146

====

Target: human cyclin-dependent kinase 2 (Cdk2) (Homo sapiens)
Construct: poly-histidine; made in house; host or cells: E. coli
Assay: Kinetic thiol consumption assay with wild type Cdk2 (C177)
Format: binding
Set-up: unit not given here
Details: 500 μM ligand, 5 μM thiol, phosphate buffer pH 8
Text: A library of 120 acrylamides was screened against a) human cyclin-dependent kinase 2 (Cdk2, which contains one surface exposed cysteine residue—C177), prepared by cloning cDNA into the pRSETA bacterial expression vector to generate a poly-histidine tagged Cdk2 fusion that was purified from E. coli using standard techniques, and b) a model thiol (specific details are given below). […] Fluorescence measurements were normalized against a DMSO/thiol only control and plotted against time. […]
endpointName: Rate constant with Cdk2 (k(Cdk2))
Answer with a bare number; do not write a unit.

Input: Using the record for C=CC(=O)N(C)C1CC(OCC)C12CCC2 (stereo not shown) [CA-048] , report its Rate constant with Cdk2 (k(Cdk2)).
Output: 0.01116

Input: Next up: C=CC(=O)N1CCCCCC1C/C=C/c1ccccc1 (stereo not shown) [CA-096]
Output: 0.0034

Input: Next up: C=CC(=O)N(c1cccc2ncccc12)C1CCC1 [CA-032]
Output: 0.02299

Input: Next up: C=CC(=O)Nc1nc2cc3c(cc2s1)OC(F)(F)O3 [CA-142]
Output: 0.03086

Input: Next up: C=CC(=O)NC(C)c1ccc2c(c1)OCO2 (stereo not shown) [EL-1051]
Output: 0.00298

====

molecular target: Cdk2(S181C) (C177A) (Homo sapiens, UniProt P24941, C177A/S181C); construct: poly-histidine; made in house; host or cells: E. coli; experiment: Kinetic thiol consumption assay with Cdk2 mutant S181C; assay type: binding; set-up: key: rate constant with Cdk2 ÷ rate constant with model thiol (fold); settings: Cdk2 S181C, additional mutation C177A
Rate enhancement, Cdk2 S181C values by entry
Answer with a bare number; do not write a unit.

Here are 4 compounds together with their reported answers.
In [3]: df
Out[3]:
                                   compound  observedmeasurement
0                C=CC(=O)Nc1ccc(C(=O)OC)cc1               0.5066
1    C=CC(=O)NCCc1c(-c2ccccn2)[nH]c2ccccc12               0.1531
2  Cn1cc(S(=O)(=O)N2CCOCC2)cc1C(=O)NC(=O)CCl               0.2957
3                 C=CC(=O)N1CC(Cc2ccccc2)C1                2.167

Input: Using the record for C=CC(=O)Nc1ccc(-c2ncccn2)cc1 , report its Rate enhancement, Cdk2 S181C.
Output: 1.495

Input: Next up: C=CC(=O)NCc1ccc(F)cc1
Output: 1.1306E−11

Input: Next up: C=CC(=O)NC1C[C@@H](C(=C)C)CC=C1C (some centres unmarked)
Output: 0.214

Input: Next up: C=CC(=O)N1CCCC2(CCCc3ccccc32)C1 (centres unmarked)
Output: 0.4258

Input: Next up: C=CC(=O)N1CCN(c2ccccc2[N+](=O)[O-])CC1
Output: 1.601

Input: Next up: C=CC(=O)NC1c2ccccc2Oc2ccccc21
Output: 0.8523

Input: Next up: C=CC(=O)NC1(c2noc(C)n2)CCCCCC1
Output: 0.1273

====

target: Cdk2(T182C) (C177A) (Homo sapiens, UniProt P24941, C177A/T182C); construct: poly-histidine; made in house; host or cells: E. coli; test: Kinetic thiol consumption assay with Cdk2 mutant T182C; type: binding; set-up: key: rate constant with Cdk2 ÷ rate constant with model thiol (fold); details: Cdk2 T182C, additional mutation C177A
endpointName: Rate enhancement, Cdk2 T182C

>>> df
                                   compound                        experimentaltarget  observedmeasurement
0  C=CC(=O)N1CCCCCC1c1ccc(N(C)C)cc1 (stereo not drawn)  Cdk2(T182C) (C177A) (Homo sapiens, UniProt P24941, C177A/T182C)                1.338
1  C=CC(=O)N1CC(CCN2CCCC2=O)c2ccccc21 (stereo not drawn)  Cdk2(T182C) (C177A) (Homo sapiens, UniProt P24941, C177A/T182C)                16.71

Field: next compound
Input: Using the record for O=C(c1ccccc1)[C@@H]1O[C@H]1c1ccccc1 , report its Rate enhancement, Cdk2 T182C.
Output: 34.33

Data origin: patent US11415579B2
